- Tested on: HCV 1a-H77 subgenomic replicon
- METHOD_DESCRIPTION: microbe, parasite or virus in culture
- Format: cell-based, HCV genotype 1a
- EXPERIMENTAL_SETUP: Hepatitis C virus, stable replicon, strain 1a H77, 5% FBS, no human plasma; read-out: 1a H77 5% FBS EC50
Classify: TRUE when EC50 is strictly less than 40 nM; FALSE when EC50 is not.

Reference set, count: 3
- CC(=O)CCCCN(c1cc2oc(-c3ccc(F)cc3)c(-c3ncc[nH]3)c2cc1C1CC1)S(C)(=O)=O: TRUE
- CCOP(=O)(CCCN(c1cc2oc(-c3ccc(F)cc3)c(C3=NOCCN3)c2cc1C1CC1)S(C)(=O)=O)OCC: TRUE
- CC[S+]([O-])CCN(c1cc2oc(-c3ccc(F)cc3)c(C3=NOCCN3)c2cc1C1CC1)S(C)(=O)=O (stereo not shown): TRUE

# strict comparison: is reported EC50 < 40 nM? input = CCOC(=O)CN(c1cc2oc(-c3ccc(F)cc3)c(-c3ncc[nH]3)c2cc1C1CC1)S(C)(=O)=O FALSE

# strict comparison: is reported EC50 < 40 nM? input = CS(=O)(=O)N(CCCN1CCCCC1)c1cc2oc(-c3ccc(F)cc3)c(C3=NOCCN3)c2cc1C1CC1 FALSE

# strict comparison: is reported EC50 < 40 nM? input = CS(=O)(=O)N(Cc1cnc(-c2c[nH]c(=O)[nH]c2=O)s1)c1ccc2c(-c3ncc[nH]3)c(-c3ccccc3)oc2c1 FALSE

# strict comparison: is reported EC50 < 40 nM? input = CS(=O)(=O)CCN(c1cc2oc(-c3ccc(F)cc3)c(-c3ncc[nH]3)c2cc1C1CC1)S(C)(=O)=O TRUE

---

- Tested on: HCV 1b-BB7 subgenomic replicon
- METHOD_DESCRIPTION: microbe, parasite or virus in culture
- Assay type: cell-based, HCV genotype 1b
- EXPERIMENTAL_SETUP: Hepatitis C virus, stable replicon, strain 1b BB7, 5% FBS, no human plasma; read-out: 1b BB7 5% FBS EC50
Classify: Fulfilled when EC50 is strictly less than 70 nM; Not fulfilled when EC50 is not.

Reference set, count: 5
* CS(=O)(=O)N(Cc1ccccc1)c1ccc2c(-c3ncc[nH]3)c(-c3ccccc3)oc2c1 | Not fulfilled
* CS(=O)(=O)N(CCCO)c1cc2oc(-c3ccc(F)cc3)c(C3=NOCCN3)c2cc1C1CC1 | Fulfilled
* CS(=O)(=O)N(CCCOc1ccccc1)c1cc2oc(-c3ccc(F)cc3)c(-c3ncc[nH]3)c2cc1C1CC1 | Not fulfilled
* CS(=O)(=O)N(CCCCO)c1cc2oc(-c3ccc(F)cc3)c(C3=NOCN3)c2cc1C1CC1 | Fulfilled
* Cc1c[nH]c(-c2c(-c3ccc(F)cc3)oc3cc(N(CCCCO)S(C)(=O)=O)c(C4CC4)cc23)n1 | Fulfilled

# strict comparison: is reported EC50 < 70 nM? input = CC(O)CN(c1cc2oc(-c3ccc(F)cc3)c(-c3ncc[nH]3)c2cc1C1CC1)S(C)(=O)=O (stereo not drawn) Not fulfilled

# strict comparison: is reported EC50 < 70 nM? input = CC(C)CCN(c1cc2oc(-c3ccc(F)cc3)c(C3=NOCCN3)c2cc1C1CC1)S(C)(=O)=O Fulfilled

# strict comparison: is reported EC50 < 70 nM? input = CS(=O)(=O)N(Cc1cnc(-c2c[nH]c(=O)[nH]c2=O)s1)c1ccc2c(-c3ncc[nH]3)c(-c3ccccc3)oc2c1 Not fulfilled

# strict comparison: is reported EC50 < 70 nM? input = CS(=O)(=O)N(CCCc1nnn[nH]1)c1cc2oc(-c3ccc(F)cc3)c(-c3ncc[nH]3)c2cc1C1CC1 Not fulfilled

# strict comparison: is reported EC50 < 70 nM? input = CCOP(=O)(CCCN(c1cc2oc(-c3ccc(F)cc3)c(C3=NOCCN3)c2cc1C1CC1)S(C)(=O)=O)OCC Fulfilled

# strict comparison: is reported EC50 < 70 nM? input = CS(=O)(=O)N(CCCN1CCOCC1)c1cc2oc(-c3ccc(F)cc3)c(-c3ncc[nH]3)c2cc1C1CC1 Fulfilled

# strict comparison: is reported EC50 < 70 nM? input = CS(=O)(=O)N(CCCC(F)(F)F)c1cc2oc(-c3ccc(F)cc3)c(-c3ncc[nH]3)c2cc1C1CC1 Fulfilled

# strict comparison: is reported EC50 < 70 nM? input = CS(=O)(=O)N(CCCn1cccc1)c1cc2oc(-c3ccc(F)cc3)c(C3=NOCCN3)c2cc1C1CC1 Fulfilled

# strict comparison: is reported EC50 < 70 nM? input = CS(=O)(=O)N(CC(N)=O)c1cc2oc(-c3ccc(F)cc3)c(-c3ncc[nH]3)c2cc1C1CC1 Not fulfilled
